target: T1, human PCSK9 (proprotein convertase subtilisin kexin type 9) (human, UniProt Q8NBP7 31-692); assay: BLI, biotinylated hPCSK9 on sensor tips
T1 construct: Directly immobilized (SPR ProteOn), biotinylated (BLI), or in solution, depending on the assay; also called hPCSK9
T1 sequence (Q8NBP7 31-692 limits assumed): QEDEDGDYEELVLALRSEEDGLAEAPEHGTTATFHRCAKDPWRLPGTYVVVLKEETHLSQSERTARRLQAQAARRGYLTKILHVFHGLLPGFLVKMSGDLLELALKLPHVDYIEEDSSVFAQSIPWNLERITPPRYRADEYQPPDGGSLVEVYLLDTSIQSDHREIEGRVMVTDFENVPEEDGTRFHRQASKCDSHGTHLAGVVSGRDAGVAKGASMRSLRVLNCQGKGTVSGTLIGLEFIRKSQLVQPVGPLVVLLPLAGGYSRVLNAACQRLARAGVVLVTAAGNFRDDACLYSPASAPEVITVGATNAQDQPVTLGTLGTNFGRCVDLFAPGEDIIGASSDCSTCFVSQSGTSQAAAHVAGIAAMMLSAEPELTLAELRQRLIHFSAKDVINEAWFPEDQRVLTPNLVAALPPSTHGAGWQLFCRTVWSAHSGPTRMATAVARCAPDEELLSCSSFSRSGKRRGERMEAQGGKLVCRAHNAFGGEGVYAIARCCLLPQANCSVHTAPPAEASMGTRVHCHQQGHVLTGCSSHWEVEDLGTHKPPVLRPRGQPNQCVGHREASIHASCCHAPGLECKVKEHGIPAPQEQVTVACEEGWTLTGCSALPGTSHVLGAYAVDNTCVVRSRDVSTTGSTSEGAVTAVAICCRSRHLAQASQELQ
READOUT_NAME: Kd
Report as: number unit

BINDER: 2382E05 (designed binder, Anti-PCSK9 Adnectin, His6-tagged) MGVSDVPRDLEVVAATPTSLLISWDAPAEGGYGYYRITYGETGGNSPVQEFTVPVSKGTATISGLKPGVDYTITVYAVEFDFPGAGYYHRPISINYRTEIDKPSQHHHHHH
Kd: 0.604 nM

# ---- query binder ----
(Q) I would be grateful if you could share the reported Kd for 2382E03 (designed binder, Anti-PCSK9 Adnectin, His6-tagged) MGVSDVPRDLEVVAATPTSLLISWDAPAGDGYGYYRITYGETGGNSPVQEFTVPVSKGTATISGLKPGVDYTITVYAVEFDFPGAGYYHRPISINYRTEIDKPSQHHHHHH .
(A) 2.94 nM

Origin of values: patent US20120094909A1
